system: WEE1; conditions: concentration: 1 μM, replicates: in singlicate; n = 1;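 also: KINOMEscan kinase panel screen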
Consider the following molecules and their measured %Inh readings.

Molecule: CN(c1ccc(F)c(NC(=O)c2cccc(OC(C)(C)C#N)c2Cl)c1)c1ccc2nc(NC(=O)C3CC3)sc2n1
%Inh [%]: 0
//
Molecule: CN(C)c1ncnc2nc[nH]c12
%Inh [%]: 0
//
Molecule: Fc1cc(Cl)ccc1Nc1ccnc2cc(-c3ccc(CN4CCSCC4)o3)ccc12
%Inh [%]: 0
//
Molecule: Cn1cc(-c2ccc3c(c2)CCN3C(=O)Cc2cc(F)cc(F)c2F)c2c(N)ncnc21
%Inh [%]: 0
//
Molecule: CCNc1nccc(-c2c(-c3ccc(F)cc3)ncn2C2CCN(C)CC2)n1
%Inh [%]: 0
//
Molecule: CSc1ccc(NC2=C(c3ccc(Cl)cc3)C(=O)NC2=O)cc1
%Inh [%]: 5
//
Molecule: Nc1cccc(-c2ccc3c(N)n[nH]c3c2)c1
%Inh [%]: 5
//
Molecule: COc1cc(Nc2nccc(N3CCC(NC(=O)Nc4ccc5c(c4)OCO5)C3)n2)cc(OC)c1OC (stereo not drawn)
%Inh [%]: 0
//
Molecule: COc1cccc(C2=C(Nc3cccc(O)c3)C(=O)NC2=O)c1
%Inh [%]: 20
//
Molecule: CC(C)c1nc(-c2ccc(F)c(NS(=O)(=O)c3c(F)cccc3F)c2)c(-c2ccnc(Nc3ccc(N4CCOCC4)nc3)n2)s1
%Inh [%]: 5
//
Molecule: Cn1cc(-c2cnc(N)c3c(-c4ccc5c(c4)CCN5C(=O)Cc4ccccc4)csc23)cn1
%Inh [%]: 3
//
Molecule: Nc1ncc(-c2ccc3nccc(-c4ccncc4)c3c2)cc1S(=O)(=O)N1CCCCC1
%Inh [%]: 0
//
Molecule: COC(=O)Nc1nc2ccc(Oc3ccc(CC(=O)Nc4cc(C(F)(F)F)ccc4F)cc3)cc2[nH]1
%Inh [%]: 1
//
Molecule: CNc1nccc(-c2ccc3c(N)n[nH]c3c2)n1
%Inh [%]: 9
//
Molecule: Cl.N#CCc1ccc(Nc2nccc(Nc3ccc(Oc4ccccc4)cc3)n2)cc1
%Inh [%]: 0
//
Molecule: CCn1c(-c2nonc2N)nc2c(-c3ccccc3)ncc(OCCCN)c21.O=C(O)C(F)(F)F.O=C(O)C(F)(F)F
%Inh [%]: 2
//
Molecule: O=C(Nc1n[nH]c2nc(-c3ccccc3O)ccc12)C1CC1
%Inh [%]: 0
//
Molecule: COC(=O)Nc1nc2cc(Oc3ccc(NC(=O)Nc4cccc(SC)c4)cc3)ccc2[nH]1.Cl
%Inh [%]: 28

----------
tested on: MLK3; conditions: concentration: 1 μM, replicates: in singlicate; n = 1

Compound: CN1CCN(Cc2ccc(NC(=O)Nc3ccc(N(C)c4ccnc(Nc5ccc(CS(C)(=O)=O)cc5)n4)cc3)cc2)CC1.Cl [GW827654]
Target System: MLK3
Unit Tag: %
%Inh: 0

Compound: Fc1cc(Cl)ccc1Nc1ccnc2cc(-c3ccc(CN4CCOCC4)o3)ccc12 [GW560109]
Target System: MLK3
Unit Tag: %
%Inh: 0

Compound: CC(C)c1nc(-c2cccc(NS(=O)(=O)c3c(F)cccc3F)c2)c(-c2ccnc(Nc3ccc(N4CCOCC4)nc3)n2)s1.Cl [GSK1723980]
Target System: MLK3
Unit Tag: %
%Inh: 73

Compound: Cn1cc(-c2ccc3c(c2)CCN3C(=O)Cc2cc(F)cc(C(F)(F)F)c2)c2c(N)ncnc21 [GSK2635225]
Target System: MLK3
Unit Tag: %
%Inh: 72

Compound: N#CC1(c2cccc(C(=O)Nc3cccc(Oc4ccc5nc(NC(=O)C6CC6)sc5n4)c3)c2)CC1
Target System: MLK3
Unit Tag: %
%Inh: 17

Compound: O=C(O)C(F)(F)F.O=c1[nH]ccc2nc(N[C@@H]3CCNC3)nc(Nc3ccc4c(c3)S(=O)(=O)CC4)c12 [GSK2181306]
Target System: MLK3
Unit Tag: %
%Inh: 61

Compound: COc1cc(Nc2nccc(N3CCC(NS(=O)(=O)c4ccc(NC(C)=O)cc4)CC3)n2)cc(OC)c1OC [GSK1379825]
Target System: MLK3
Unit Tag: %
%Inh: 51

----------
Consider the following compounds and their measured %Inh readings.
system: CDKL2; conditions: concentration: 1 μM, replicates: in singlicate; n = 1

Compound Smiles: CNc1nccc(-c2ccc3c(N)n[nH]c3c2)n1
%Inh [%]: 17

Compound Smiles: Cc1ccc(O)cc1Nc1ccnc2ccc(C(C)(C)C)cc12
%Inh [%]: 0

Compound Smiles: Cn1cc(-c2cnc(N)c3c(-c4ccc5c(c4)CCN5C(=O)Cc4ccccc4)csc23)cn1
%Inh [%]: 0

Compound Smiles: CC(C)(C)c1ccc(C(=O)Nc2cn3cc(-n4ccnc4)ccc3n2)cc1
%Inh [%]: 0

Compound Smiles: Cc1cccc(Nc2nc(N[C@H]3CCCC[C@H]3N)ncc2C(N)=O)c1.Cl
%Inh [%]: 28

Compound Smiles: Cc1cc(-c2c(-c3ccc(F)cc3)ncn2CCCN2CCOCC2)nc(N)n1
%Inh [%]: 0

Compound Smiles: CC(C)c1nc(-c2ccc(F)c(NS(=O)(=O)c3c(F)cccc3F)c2)c(-c2ccnc(Nc3ccc(N4CCOCC4)nc3)n2)s1
%Inh [%]: 99.3

Compound Smiles: Cc1ccc(Nc2ccnc(Nc3ccc(C)c(F)c3)n2)cc1O.Cl
%Inh [%]: 40

Compound Smiles: COc1cc(Nc2nccc(N3CCC(NS(=O)(=O)c4ccc(NC(C)=O)cc4)CC3)n2)cc(OC)c1OC
%Inh [%]: 24

Compound Smiles: CCNC(=O)/C=C/c1n[nH]c2cc(Sc3ccccc3C(=O)NC)ccc12
%Inh [%]: 26

Compound Smiles: COC(=O)Nc1nc2ccc(Oc3ccc(CC(=O)Nc4cc(C(F)(F)F)ccc4F)cc3)cc2[nH]1
%Inh [%]: 14

Compound Smiles: Cn1cc(-c2ccc3c(c2)CCN3C(=O)Cc2cc(F)cc(F)c2F)c2c(N)ncnc21
%Inh [%]: 29

Compound Smiles: Cc1ccc(C)c(NC(=O)Nc2ccc(C)c(-c3ccc(C(=O)Nc4ccncc4)cc3)c2)c1
%Inh [%]: 42

Compound Smiles: Cc1ccccc1CC(=O)N1CCc2cc(-c3cn(C)c4ncnc(N)c34)ccc21
%Inh [%]: 17

Compound Smiles: Cc1ccc(NC(=O)c2ccc(Cl)c(Cl)c2)cc1-c1ccc(C(=O)Nc2ccncc2)cc1
%Inh [%]: 13

Compound Smiles: O=C(Nc1n[nH]c2nc(-c3cccc(O)c3)ccc12)C1CC1
%Inh [%]: 80

Compound Smiles: N#CC1(c2cccc(C(=O)Nc3cccc(Oc4ccc5nc(NC(=O)C6CC6)sc5n4)c3)c2)CC1
%Inh [%]: 95.8

Compound Smiles: COc1cccc(C2=C(Nc3cccc(O)c3)C(=O)NC2=O)c1
%Inh [%]: 7

Compound Smiles: Cc1ccc(O)cc1Nc1ccnc2cc(-c3ccc(CN4CCCCC4)o3)ccc12
%Inh [%]: 0

Compound Smiles: O=C(Nc1c(F)cccc1F)c1cc(C(=O)c2ccccc2F)c[nH]1
%Inh [%]: 7

Compound Smiles: COc1ccc(C)c(Nc2ccnc(Nc3ccc(-c4cnc[nH]4)cc3)n2)c1.Cl
%Inh [%]: 0

Compound Smiles: Cl.N#CCc1ccc(Nc2nccc(Nc3ccc(Oc4ccccc4)cc3)n2)cc1
%Inh [%]: 55

----------
test system: TRPM6; details: concentration: 1 μM, replicates: in singlicate; n = 1
Consider the following molecules and their measured %Inh readings.
Property Name: %Inh (%)

Molecule: O=C(Nc1n[nH]c2nc(-c3ccccc3O)ccc12)C1CC1
Property Name: %Inh
Recorded Number: 0

Molecule: CN(c1ccc(NC(=O)Nc2cccc(Cl)c2)cc1)c1ccnc(N)n1.Cl
Property Name: %Inh
Recorded Number: 0

Molecule: Cn1cc(-c2cnc(N)c3c(-c4ccc5c(c4)CCN5C(=O)Cc4ccccc4)csc23)cn1
Property Name: %Inh
Recorded Number: 15

Molecule: CC(C)(C)c1ccc(C(=O)Nc2cn3cc(-n4ccnc4)ccc3n2)cc1
Property Name: %Inh
Recorded Number: 0

Molecule: Cl.Cl.NC(CNC(=O)c1cc(Br)c(-c2ccnc3[nH]ccc23)s1)c1ccccc1 (centres unmarked)
Property Name: %Inh
Recorded Number: 0

Molecule: O=C(Nc1c(F)cccc1F)c1cc(C(=O)c2ccccc2F)c[nH]1
Property Name: %Inh
Recorded Number: 0

Molecule: COc1cccc(NC(=O)NCCNc2ccnc(Nc3ccc(F)cc3)n2)c1
Property Name: %Inh
Recorded Number: 21

Molecule: NCCC(NC(=O)c1cc(Br)c(-c2ccnc3[nH]ccc23)s1)c1ccccc1.O=C(O)C(F)(F)F.O=C(O)C(F)(F)F (centres unmarked)
Property Name: %Inh
Recorded Number: 0

----------
system: IKK-beta; construct: gene IKBKB; conditions: concentration: 1 μM, replicates: in singlicate; n = 1
Rule: %Inh below 40% gives Yes, anything at or above gives No.

Compound: CN(C)c1ncnc2nc[nH]c12
Assigned Label: Yes

Compound: COc1ccc(C)c(Nc2ccnc(Nc3ccc(-c4cnc[nH]4)cc3)n2)c1.Cl
Assigned Label: Yes

Compound: CN(c1ccc(F)c(NC(=O)c2cccc(OC(C)(C)C#N)c2Cl)c1)c1ccc2nc(NC(=O)C3CC3)sc2n1
Assigned Label: Yes

Compound: CC(C)(C)c1ccc(C(=O)Nc2cn3cc(-n4ccnc4)ccc3n2)cc1
Assigned Label: Yes

Compound: Cc1nn2c(=O)cc(N3CCO[C@H](C)C3)nc2n1Cc1cccc(Cl)c1Cl
Assigned Label: No

Compound: COc1cccc(CC(=O)N2CCc3cc(-c4cn(C)c5ncnc(N)c45)ccc32)c1
Assigned Label: No

Compound: Nc1ncc(-c2ccc3nccc(-c4ccncc4)c3c2)cc1S(=O)(=O)N1CCCCC1
Assigned Label: Yes

Compound: Cl.Cl.NCC(NC(=O)c1cc(-c2cccnc2)c(-c2ccnc3[nH]ccc23)s1)c1ccccc1 (stereo not shown)
Assigned Label: No

Compound: CCNC(=O)/C=C/c1n[nH]c2cc(Sc3ccccc3C(=O)NC)ccc12
Assigned Label: Yes

Compound: O=C(Nc1n[nH]c2nc(-c3ccccc3O)ccc12)C1CC1
Assigned Label: Yes

Compound: O=C(O)C(F)(F)F.O=c1[nH]ccc2nc(N[C@@H]3CCNC3)nc(Nc3ccc4c(c3)S(=O)(=O)CC4)c12
Assigned Label: No

Compound: CN(C)CCOc1ccc(-c2cc(-c3ccc(Cl)c(O)c3)c(-c3ccncc3)[nH]2)cc1.Cl.Cl
Assigned Label: No

Compound: CN(c1ccc2c(c1)nc(NCc1ccccc1)n2C)c1ccnc(Nc2ccc(CS(C)(=O)=O)cc2)n1.Cl
Assigned Label: Yes

Compound: N#CC1(c2cccc(C(=O)Nc3cccc(Oc4ccc5nc(NC(=O)C6CC6)sc5n4)c3)c2)CC1
Assigned Label: Yes

Compound: Cl.N#CCc1ccc(Nc2nccc(Nc3ccc(Oc4ccccc4)cc3)n2)cc1
Assigned Label: No

Compound: Nc1ncc(-c2cn[nH]c2)c2scc(-c3ccc4c(c3)CCN4C(=O)Cc3ccccc3)c12
Assigned Label: Yes

Compound: CN(C)CCNS(=O)(=O)c1ccc(-c2ccnc3[nH]ccc23)cc1
Assigned Label: No

Compound: CCn1c(-c2nonc2N)nc2c(-c3ccccc3)ncc(OCCCN)c21.O=C(O)C(F)(F)F.O=C(O)C(F)(F)F
Assigned Label: Yes

Compound: Cc1ccccc1CC(=O)N1CCc2cc(-c3cn(C)c4ncnc(N)c34)ccc21
Assigned Label: Yes

Origin of the recorded values: paper PMC5540273
